System: MOLT-4
Assay: NCI tumour cell line growth inhibition, 48 h
Calls of active or inactive are those of the source. No stated cut-off is given here; in the data, active = GI50 up to about 1.1 µM and inactive = higher.
readoutType: GI50

1) O=C1c2cc3ccccc3cc2C2(c3ccc(Cl)cc3)NCCN12 (stereo unspecified) | 33.2 µM (inactive)
2) COc1cc([C@H]2c3cc(O)c(OC)cc3C[C@]3(O)[C@@H]2CO[C@@H]3O)ccc1O | > 100 µM (inactive)
3) C[N+]1(C)CCOC(O)(c2ccccc2)C1 (stereo unspecified) | > 100 µM (inactive)
4) N#Cc1ccc(C(C2C(=O)NC(=O)NC2=O)C2C(=O)NC(=O)NC2=O)cc1 | > 100 µM (inactive)
5) CC(C)N1CSC(=S)N(Cc2ccccc2)C1 | 2.63 µM (inactive)
6) Cc1cccc2c1Oc1ncccc1C2NC(=O)CN(C)C (stereo unspecified) | > 10 µM (inactive)
7) Cc1c(F)c(N)c2c(=O)cc(-c3ccc(NC(=O)C(N)CCCNC(=N)N)c(F)c3)oc2c1F (stereo unspecified) | 34.6 µM (inactive)
8) CC1(C)COC(c2cccnc2/C=N/O)=N1 | > 100 µM (inactive)
9) CSc1ccc(Cc2cc(C(C)(C)C)cc(C(C)(C)C)c2O)cc1 | 8.07 µM (inactive)
10) COc1ccc2[nH]c3c(c2c1)CCc1c(OC)cccc1-3 | 29.9 µM (inactive)
11) Cc1ccc2nc(CC(=O)c3ccc4ccccc4c3)c(O)nc2c1 | > 100 µM (inactive)
